Recorded values, source patent US9115092B2.

Entries annotated with measured IC50
Molecular target: mTOR kinase (Homo sapiens)

- mol: "COc1ccc(-c2ccc3c(N4CCOCC4)nc(-c4ccc(NC(=O)Nc5ccc(C(=O)N(C)C)c(F)c5)cc4)nc3c2)cn1"
  test target: "mTOR kinase (Homo sapiens)"
  IC50: "< 50 nM"
- mol: "CN1CCN(C(=O)c2ccc(NC(=O)Nc3ccc(-c4nc(N5CCOCC5)c5ccc(-c6ccncc6)cc5n4)cc3)cc2)CC1"
  test target: "mTOR kinase (Homo sapiens)"
  IC50: "< 50 nM"

Returns the measured IC50 for the input compound. Input: Cc1ccc(-c2ccc3c(N4CCOCC4)nc(-c4ccc(NC(=O)Nc5ccc(C(=O)N(C)C)cc5)cc4)nc3c2)cn1
< 50 nM

Returns the measured IC50 for the input compound. Input: CN(C)C(=O)c1ccc(NC(=O)Nc2ccc(-c3nc(N4CCOCC4)c4ccc(-c5cnc(N)nc5)cc4n3)cc2F)cc1
< 50 nM

Returns the measured IC50 for the input compound. Input: CN(C)C(=O)c1ccc(NC(=O)Nc2ccc(-c3nc(N4CCOCC4)c4ccc(-c5cccc(F)c5)cc4n3)cc2)cc1
201 to 10000 nM

###

Entries annotated with measured IC50
Tested on: PC3 cells
Assay: XTT assay for cell viability, PC3 cells
Format: cell-based, human
Conditions: Homo sapiens, PC-3, cell viability

Worked cases, IC50 given:
- mol: "CN(C)C(=O)c1ccc(NC(=O)Nc2ccc(-c3nc(N4CCOCC4)c4cc(F)c(-c5cnn(C)c5)cc4n3)cc2)cc1"
  IC50: "< 100 nM"
- mol: "CN(C)C(=O)c1ccc(NC(=O)Nc2ccc(-c3nc(N4CCOCC4)c4ccc(-c5cnc6ccccc6c5)cc4n3)cc2)cc1"
  IC50: "< 100 nM"

In the following, a different compound is considered.
Returns the measured IC50 for the input compound. Input: CN(C)C(=O)c1ccc(NC(=O)Nc2ccc(-c3nc(N4CCOCC4)c4ccc(-c5cncnc5)cc4n3)cc2F)cc1
201 to 10000 nM

###

Entries annotated with measured IC50
Target: PI3Kα (wild-type), P110/P85α (Homo sapiens, UniProt P42336)
Sequence (P42336 whole entry): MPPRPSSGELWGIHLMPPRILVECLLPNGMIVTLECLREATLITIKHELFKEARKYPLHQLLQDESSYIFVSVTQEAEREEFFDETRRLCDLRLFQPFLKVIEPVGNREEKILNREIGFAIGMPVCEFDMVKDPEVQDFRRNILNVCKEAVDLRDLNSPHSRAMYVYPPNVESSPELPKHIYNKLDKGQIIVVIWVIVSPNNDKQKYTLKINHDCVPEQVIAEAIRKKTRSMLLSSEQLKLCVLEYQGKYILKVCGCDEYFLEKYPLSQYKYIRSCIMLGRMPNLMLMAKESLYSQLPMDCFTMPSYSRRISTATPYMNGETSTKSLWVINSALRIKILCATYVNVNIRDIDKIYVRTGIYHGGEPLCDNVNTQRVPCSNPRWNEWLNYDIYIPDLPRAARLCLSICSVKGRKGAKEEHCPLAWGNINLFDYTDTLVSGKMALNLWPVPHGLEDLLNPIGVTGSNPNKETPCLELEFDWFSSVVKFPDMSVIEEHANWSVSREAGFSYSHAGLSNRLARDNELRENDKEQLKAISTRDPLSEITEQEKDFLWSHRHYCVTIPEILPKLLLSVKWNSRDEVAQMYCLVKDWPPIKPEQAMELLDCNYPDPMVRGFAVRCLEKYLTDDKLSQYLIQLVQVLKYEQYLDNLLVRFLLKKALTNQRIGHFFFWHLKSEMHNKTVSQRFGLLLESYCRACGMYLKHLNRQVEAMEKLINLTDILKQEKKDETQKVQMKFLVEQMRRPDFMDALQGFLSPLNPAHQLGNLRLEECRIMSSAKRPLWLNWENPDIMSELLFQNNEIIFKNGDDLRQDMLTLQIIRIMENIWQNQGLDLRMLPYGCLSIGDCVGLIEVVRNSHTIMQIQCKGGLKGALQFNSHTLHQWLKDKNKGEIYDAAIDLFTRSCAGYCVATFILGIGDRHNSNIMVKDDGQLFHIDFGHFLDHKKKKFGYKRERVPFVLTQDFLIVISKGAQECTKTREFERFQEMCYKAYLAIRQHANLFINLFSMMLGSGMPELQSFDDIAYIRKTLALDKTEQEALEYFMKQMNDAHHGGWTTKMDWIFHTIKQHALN
Sequence (P27986 whole entry partner): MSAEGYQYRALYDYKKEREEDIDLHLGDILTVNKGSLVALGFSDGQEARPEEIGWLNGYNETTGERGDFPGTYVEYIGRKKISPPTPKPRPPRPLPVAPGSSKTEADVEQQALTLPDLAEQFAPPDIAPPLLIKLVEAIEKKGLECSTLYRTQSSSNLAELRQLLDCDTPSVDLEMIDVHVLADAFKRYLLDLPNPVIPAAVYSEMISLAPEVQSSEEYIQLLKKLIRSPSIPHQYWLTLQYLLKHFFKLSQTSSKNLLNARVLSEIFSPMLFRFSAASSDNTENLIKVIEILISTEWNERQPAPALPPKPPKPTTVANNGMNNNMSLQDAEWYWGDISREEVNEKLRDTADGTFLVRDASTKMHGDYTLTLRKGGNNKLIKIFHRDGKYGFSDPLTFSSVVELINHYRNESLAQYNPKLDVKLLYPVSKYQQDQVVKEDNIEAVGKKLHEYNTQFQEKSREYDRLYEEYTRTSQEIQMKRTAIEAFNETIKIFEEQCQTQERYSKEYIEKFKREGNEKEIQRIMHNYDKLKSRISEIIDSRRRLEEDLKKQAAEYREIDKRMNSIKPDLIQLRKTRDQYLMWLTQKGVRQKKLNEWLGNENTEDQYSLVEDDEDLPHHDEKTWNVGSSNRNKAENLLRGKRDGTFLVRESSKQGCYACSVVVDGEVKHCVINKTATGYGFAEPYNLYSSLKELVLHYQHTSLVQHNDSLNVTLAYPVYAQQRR
Experiment: PI3 Kinase TR-FRET assay, PI3Kα (wild-type)
Method: The ability of compounds of the invention to inhibit PI3K activity was determined in a homogeneous TR-FRET assay using a PI3K assay kit (Millipore, USA; cat #33-016) according to manufacturer's instructions. […] The PIP3 product is detected by displacement of biotin-PIP3 from an energy transfer complex consisting of Europium labeled anti-GST monoclonal antibody, a GST-tagged PH domain, biotinylated PIP3 and Streptavidin-APC. […]

Worked cases, IC50 given:
- compound: "Cc1nn(C)c(C)c1-c1ccc2c(N3CCOCC3)nc(-c3ccc(NC(=O)Nc4ccc(C(=O)N(C)C)cc4)cc3)nc2c1"
  IC50: "< 50 nM"
- compound: "CN(C)C(=O)c1ccc(NC(=O)Nc2ccc(-c3nc(N4CCOCC4)c4ccc(-c5cnc(N(C)C)nc5)cc4n3)cc2F)cc1"
  IC50: "50 to 200 nM"
- compound: "CN(C)C(=O)c1ccc(NC(=O)Nc2ccc(-c3nc(N4CCOCC4)c4ncc(-c5cnn(C)c5)cc4n3)cc2)c(F)c1"
  IC50: "< 50 nM"
- compound: "CN(C)C(=O)c1ccc(NC(=O)Nc2ccc(-c3nc(N4CCOCC4)c4cc(F)c(-c5cnn(C)c5)cc4n3)cn2)cc1"
  IC50: "< 50 nM"
- compound: "COc1ccncc1-c1ccc2c(N3CCOCC3)nc(-c3ccc(NC(=O)Nc4ccc(C(=O)N(C)C)cc4)cc3)nc2c1"
  IC50: "< 50 nM"

In the following, a different compound is considered.
Returns the measured IC50 for the input compound. Input: CC1CN(c2nc(-c3ccc(NC(=O)Nc4ccc(C(=O)N(C)C)cc4)cc3)nc3cc(-c4cnn(C)c4)cnc23)CC(C)O1 (stereo not drawn)
201 to 10000 nM
